TARGET_OR_SYSTEM: Hap1 (UniProt P0CE41)
Sequence (P0CE41 whole entry): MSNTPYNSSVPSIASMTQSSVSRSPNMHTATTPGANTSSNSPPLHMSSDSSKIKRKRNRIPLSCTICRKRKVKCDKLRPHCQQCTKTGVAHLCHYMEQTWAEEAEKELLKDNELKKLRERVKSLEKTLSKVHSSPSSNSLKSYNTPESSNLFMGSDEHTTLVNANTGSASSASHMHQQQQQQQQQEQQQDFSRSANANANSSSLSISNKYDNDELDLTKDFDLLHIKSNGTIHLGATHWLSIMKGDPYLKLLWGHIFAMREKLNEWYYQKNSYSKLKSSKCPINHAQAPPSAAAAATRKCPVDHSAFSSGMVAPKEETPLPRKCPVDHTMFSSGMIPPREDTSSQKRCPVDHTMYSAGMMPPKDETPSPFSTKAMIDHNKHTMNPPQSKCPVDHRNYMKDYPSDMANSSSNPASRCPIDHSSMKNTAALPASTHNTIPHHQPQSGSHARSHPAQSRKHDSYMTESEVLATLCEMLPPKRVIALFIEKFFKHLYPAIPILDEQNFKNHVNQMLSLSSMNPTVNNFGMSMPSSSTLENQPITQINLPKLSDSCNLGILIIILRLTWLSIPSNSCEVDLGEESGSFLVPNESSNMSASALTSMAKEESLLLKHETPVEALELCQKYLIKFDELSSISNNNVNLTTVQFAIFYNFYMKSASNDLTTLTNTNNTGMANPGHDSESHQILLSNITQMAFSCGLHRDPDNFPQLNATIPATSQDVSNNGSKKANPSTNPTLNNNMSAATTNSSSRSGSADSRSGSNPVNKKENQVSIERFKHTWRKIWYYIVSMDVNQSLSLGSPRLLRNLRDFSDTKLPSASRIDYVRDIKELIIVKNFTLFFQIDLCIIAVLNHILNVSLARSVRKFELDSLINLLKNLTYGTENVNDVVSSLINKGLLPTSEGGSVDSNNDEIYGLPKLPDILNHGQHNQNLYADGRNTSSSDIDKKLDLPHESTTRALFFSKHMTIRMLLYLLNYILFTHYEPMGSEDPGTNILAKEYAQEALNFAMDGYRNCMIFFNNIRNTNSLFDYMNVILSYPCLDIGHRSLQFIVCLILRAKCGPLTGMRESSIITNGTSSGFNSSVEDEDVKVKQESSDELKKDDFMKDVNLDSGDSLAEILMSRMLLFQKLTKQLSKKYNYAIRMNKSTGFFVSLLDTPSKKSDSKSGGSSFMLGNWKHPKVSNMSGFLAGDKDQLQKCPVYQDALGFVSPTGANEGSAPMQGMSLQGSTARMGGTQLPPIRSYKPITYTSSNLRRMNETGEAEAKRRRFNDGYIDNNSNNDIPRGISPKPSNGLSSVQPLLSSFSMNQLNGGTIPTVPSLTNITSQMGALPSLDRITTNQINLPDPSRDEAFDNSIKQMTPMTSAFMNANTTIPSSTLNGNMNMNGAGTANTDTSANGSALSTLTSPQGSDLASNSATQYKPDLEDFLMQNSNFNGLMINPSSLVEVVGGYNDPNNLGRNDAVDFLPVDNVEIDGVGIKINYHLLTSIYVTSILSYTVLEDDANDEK
ASSAY_PROTOCOL: PBM E-score (8-mer binding enrichment) (E-score (-0.5 to 0.5)); higher = stronger / more preferred TF binding
CONDITION_NOTES: protein concentration: 200 nM; construct: GST-DNA-binding domain
The full ranking holds about 33,000 sequences; the median of “E-score (-0.5 to 0.5)” is about -0.053, and the highest 2% start at about 0.37. What follows is part of a selection rich in the highest values, with near analogues and random picks from the rest.
PROPERTY_MEASURED: PBM E-score
Could you keep your reply to the number by itself?

Answered cases to consult:
GACCCGTC 0.0739
CCGCAACG 0.216
AGCGCAGG 0.00092
CAATTCTG -0.284

Challenge: Input AAACTGCC , output reported PBM E-score.
Response given: -0.0803

Challenge: Input CGCGGGAG , output reported PBM E-score.
Response given: 0.0987
